- protocol: CCTE_Mundy_HCI_iCellGluta_NOG_NeuriteLength: CCTE's Neurite Outgrowth Assay in iCellGluta cells for Neurite Length, Mundy Lab (AID 2284318)
Inconclusive results are not listed. The source made the active and inactive calls. How the source made its calls: active means hit-call score of the fitted dose curve at least 0.9, where 1 is the maximum; inconclusive means response in the unintended direction; inactive means score below 0.9.
measurement-label: AC50

compound | AC50
CO/C=C(/C(=O)OC)c1ccccc1Oc1cc(Oc2ccccc2C#N)ncn1 | 18.9 µM (active)
COP(=S)(OC)Oc1nc(Cl)c(Cl)cc1Cl | 23.9 µM (active)
CCOC(=O)CC(SP(=S)(OC)OC)C(=O)OCC (centres undefined) | 2.98 µM (active)

API: the following record is the query input.
AC50 recorded for this compound, `Cc1ccc(-c2c(Cl)nc(C#N)n2S(=O)(=O)N(C)C)cc1` , is 32.6 µM (active)

----------
- Read-out: Thrombomodulin, THBD (gene 7056)
- protocol: BSK_CASM3C_Thrombomodulin: BioMAP Diversity Plus: CASM3C Assay for Thrombomodulin Biomarker Activity (AID 2283051);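 further: thrombomodulin protein level measured by ELISA 24 h after dosing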
- conditions: primary human coronary artery smooth muscle cells; actives raise or lower the signal
Active and inactive are the calls of the source. The calls were made as follows: active = hit-call score of the fitted dose curve at least 0.9, where 1 is the maximum; inactive = score below 0.9.
Log the outcome using a class from 1.0 = active, 0.0 = inactive

Recorded results for 5 compounds are shown here.
compound | class-assignment
CCc1nn(C)c(C(=O)NCc2ccc(C(C)(C)C)cc2)c1Cl | 1.0
COC(=O)N(OC)c1ccccc1COc1ccn(-c2ccc(Cl)cc2)n1 | 1.0
CCOP(=S)(OCC)SCn1c(=O)oc2cc(Cl)ccc21 | 1.0
CCOC(=O)CC(SP(=S)(OC)OC)C(=O)OCC (stereo unspecified) | 0.0
CNC(=S)S | 1.0

Prompt line: Give the logged outcome of this assay for the following compound: `CC1=C(C(=O)Nc2ccccc2)SCCO1`
Response line: 0.0

Prompt line: Give the logged outcome of this assay for the following compound: `O=C(O)c1nc(Cl)ccc1Cl`
Response line: 0.0

Prompt line: Give the logged outcome of this assay for the following compound: `O=C(O)COc1nc(Cl)c(Cl)cc1Cl`
Response line: 0.0

Prompt line: Give the logged outcome of this assay for the following compound: `CN(C)C(=S)SSC(=S)N(C)C`
Response line: 1.0

Prompt line: Give the logged outcome of this assay for the following compound: CCCCC(CC)COC(=O)c1ccccc1C(=O)OCC(CC)CCCC (stereo unspecified)
Response line: 0.0

Prompt line: Give the logged outcome of this assay for the following compound: `O=C(Nc1ccccc1)Nc1ccnc(Cl)c1`
Response line: 0.0

----------
- protocol: APR_HepG2_MitoticArrest_24hr: Apredica 24-hour HepG2 Assay for Mitotic Arrest (AID 2282910)
- conditions: high-content imaging, actives raise or lower the signal
Activity calls are given as the source filed them. How the source made its calls: active means hit-call score of the fitted dose curve at least 0.9, where 1 is the maximum; inactive means score below 0.9.
Log the outcome using a class from yes (1) (active), no (0) (inactive)

compound | class-assignment
N#Cc1nn(-c2c(Cl)cc(C(F)(F)F)cc2Cl)c(N)c1S(=O)C(F)(F)F (stereo unspecified) | yes (1)
O=C(O)c1nc(Cl)ccc1Cl | no (0)
CC(Oc1ccc(Cl)cc1Cl)C(=O)O (stereo unspecified) | no (0)
COC(=O)C=C(C)OP(=O)(OC)OC | no (0)
CON(C)C(=O)Nc1ccc(Cl)c(Cl)c1 | no (0)
CC(C)(C)c1ccc(CSc2cnn(C(C)(C)C)c(=O)c2Cl)cc1 | no (0)

Prompt line: Give the logged outcome of this assay for the following compound: `CO/C=C(/C(=O)OC)c1ccccc1Oc1cc(Oc2ccccc2C#N)ncn1`
Response line: no (0)

Prompt line: Give the logged outcome of this assay for the following compound: `C=CCC1=C(C)[C@@H](OC(=O)[C@@H]2[C@@H](C=C(C)C)C2(C)C)CC1=O`
Response line: no (0)
